- System: 843782-103-R-J1-PDC complex spheroid viability
- protocol_notes: Anticancer human tumor 843782-103-R-J1-PDC patient-derived lung adenocarcinoma cell line growth inhibition [RAS]
- condition_set: second compound 3.16 µM; first compound 0.00316 µM; hits give low values
measured_metric: viability, T/C (%)
Give bare numbers, in %.

Past entries and their recorded results:
Ask: Look up viability, T/C: CC(C)n1nc(-c2ccc3oc(N)nc3c2)c2c(N)ncnc21 + C#Cc1c(F)ccc2cc(O)cc(-c3ncc4c(N5CC6CCC(C5)N6)nc(OCC56CCCN5CC(F)C6)nc4c3F)c12
Result: 71.8

Ask: Please give the result for C=CC(=O)N1CCN(c2nc(OCC3CCCN3C)nc3c(F)c(-c4nc(N)cc(C)c4C(F)(F)F)c(Cl)cc23)C(C)C1 (stereo unspecified) + C#Cc1c(F)ccc2cc(O)cc(-c3ncc4c(N5CC6CCC(C5)N6)nc(OCC56CCCN5CC(F)C6)nc4c3F)c12 too.
Result: 62.2

Consider the following items and state reported viability, T/C for each.
1. CCN1CCN(Cc2ccc(Nc3ncc(F)c(-c4cc(F)c5nc(C)n(C(C)C)c5c4)n3)nc2)CC1 + C#Cc1c(F)ccc2cc(O)cc(-c3ncc4c(N5CC6CCC(C5)N6)nc(OCC56CCCN5CC(F)C6)nc4c3F)c12
2. Nc1ccn(C2OC(CO)C(O)C2(F)F)c(=O)n1 (stereo unspecified) + C#Cc1c(F)ccc2cc(O)cc(-c3ncc4c(N5CC6CCC(C5)N6)nc(OCC56CCCN5CC(F)C6)nc4c3F)c12
3. O=C(c1ccc(F)c(F)c1Nc1ccc(I)cc1F)N1CC(O)([C@@H]2CCCCN2)C1 + C#Cc1c(F)ccc2cc(O)cc(-c3ncc4c(N5CC6CCC(C5)N6)nc(OCC56CCCN5CC(F)C6)nc4c3F)c12

Result:
[87.2, 93, 81.5]

Ask: Consider the compound shown here: C=CC(=O)Nc1cc(Nc2nccc(-c3cn(C)c4ccccc34)n2)c(OC)cc1N(C)CCN(C)C + C#Cc1c(F)ccc2cc(O)cc(-c3ncc4c(N5CC6CCC(C5)N6)nc(OCC56CCCN5CC(F)C6)nc4c3F)c12 What is its recorded viability, T/C?
Result: 90.3

###

- Test system: 843782-103-R-J1-PDC complex spheroid viability
- protocol_notes: Anticancer human tumor 843782-103-R-J1-PDC cell line growth inhibition [RAS];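 further: viability read after seven days of compound exposure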
- condition_set: second compound 0.00949 µM; first compound 3.16 µM; hits give low values
measured_metric: viability, T/C (%)
Give bare numbers, in %.

Provide viability, T/C for all items below, preserving their order.
1. NC1c2ccccc2OC12CCN(c1cnc3c(N4CCCc5ncccc54)n[nH]c3n1)CC2 (centres undefined) + CCn1c(-c2cccnc2C(C)OC)c2c3cc(ccc31)N1CCOC(CC(NC(=O)C(C(C)C)N(C)C(=O)C3(F)CCN(C(=O)C#CC(C)(C)N(C)C)CC3)C(=O)N3CCCC(N3)C(=O)OCC(C)(C)C2)C1
2. CCC(CC)c1cc(NC2CCC(N)C2)n2nccc2n1 (centres undefined) + CCn1c(-c2cccnc2C(C)OC)c2c3cc(ccc31)N1CCOC(CC(NC(=O)C(C(C)C)N(C)C(=O)C3(F)CCN(C(=O)C#CC(C)(C)N(C)C)CC3)C(=O)N3CCCC(N3)C(=O)OCC(C)(C)C2)C1
3. CC1(O)CCCC1n1c(=O)c(C(F)F)cc2cnc(NC3CCN(S(C)(=O)=O)CC3)nc21 (centres undefined) + CCn1c(-c2cc(N3CCN(C)CC3)cnc2C(C)OC)c2c3cc(ccc31)-c1csc(n1)CC(NC(=O)C1CC1C)C(=O)N1CCCC(N1)C(=O)OCC(C)(C)C2
4. Cc1nc(N2CCC3(CC2)COC(C)C3N)c(CO)nc1Sc1ccnc(N)c1Cl (centres undefined) + CCn1c(-c2cccnc2C(C)OC)c2c3cc(ccc31)N1CCOC(CC(NC(=O)C(C(C)C)N(C)C(=O)C3(F)CCN(C(=O)C#CC(C)(C)N(C)C)CC3)C(=O)N3CCCC(N3)C(=O)OCC(C)(C)C2)C1

Result:
1. 14.9
2. 3.01
3. 13.1
4. 23.1

###

Exercise: state measured viability, T/C for each of the compounds provided.
- Test system: 843782-103-R-J1-PDC complex spheroid viability
- protocol_notes: Anticancer human tumor 843782-103-R-J1-PDC cell line growth inhibition [RAS];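 further: viability read after seven days of compound exposure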
- condition_set: second compound 0.01 µM; first compound 0.01 µM; hits give low values
Numbers only, in %.

State recorded viability, T/C for all listed compounds.
1. O=C(c1ccc(F)c(F)c1Nc1ccc(I)cc1F)N1CC(O)([C@@H]2CCCCN2)C1 + C=CC(=O)N1CCN(c2nc(OCC3CCCN3C)nc3c(F)c(-c4nc(N)cc(C)c4C(F)(F)F)c(Cl)cc23)C(C)C1
2. CC(C)n1nc(-c2ccc3oc(N)nc3c2)c2c(N)ncnc21 + C=CC(=O)N1CCN(c2nc(OCC3CCCN3C)nc3c(F)c(-c4nc(N)cc(C)c4C(F)(F)F)c(Cl)cc23)C(C)C1
3. Nc1ccn(C2OC(CO)C(O)C2(F)F)c(=O)n1 (stereo not given) + C=CC(=O)N1CCN(c2nc(OCC3CCCN3C)nc3c(F)c(-c4nc(N)cc(C)c4C(F)(F)F)c(Cl)cc23)C(C)C1

Result:
85.4
50.2
87.7

Below are some compounds; for each one, tell me its viability, T/C.
1. CCN1CCN(Cc2ccc(Nc3ncc(F)c(-c4cc(F)c5nc(C)n(C(C)C)c5c4)n3)nc2)CC1 + C=CC(=O)N1CCN(c2nc(OCC3CCCN3C)nc3c(F)c(-c4nc(N)cc(C)c4C(F)(F)F)c(Cl)cc23)C(C)C1
2. C=CC(=O)Nc1cc(Nc2nccc(-c3cn(C)c4ccccc34)n2)c(OC)cc1N(C)CCN(C)C + C=CC(=O)N1CCN(c2nc(OCC3CCCN3C)nc3c(F)c(-c4nc(N)cc(C)c4C(F)(F)F)c(Cl)cc23)C(C)C1

Result:
[86.6, 84.5]

###

- Tested on: 843782-103-R-J1-PDC complex spheroid viability
- protocol_notes: Anticancer human tumor 843782-103-R-J1-PDC cell line growth inhibition [RAS];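 further: viability read after seven days of compound exposure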
- condition_set: second compound 0.01 µM; first compound 10 µM; hits give low values
measured_metric: viability, T/C (%)
Answers are plain numbers, in %.

Examples with their reported viability, T/C follow.
Ask: // query viability, T/C value for entry CC1(O)CCCC1n1c(=O)c(C(F)F)cc2cnc(NC3CCN(S(C)(=O)=O)CC3)nc21 (stereo not given) + C=CC(=O)N1CCN(c2nc(OCC3CCCN3C)nc3c(F)c(-c4nc(N)cc(C)c4C(F)(F)F)c(Cl)cc23)C(C)C1
Result: 3.18

Ask: Now the compound NC1c2ccccc2OC12CCN(c1cnc3c(N4CCCc5ncccc54)n[nH]c3n1)CC2 (stereo not given) + C=CC(=O)N1CCN(c2nc(OCC3CCCN3C)nc3c(F)c(-c4nc(N)cc(C)c4C(F)(F)F)c(Cl)cc23)C(C)C1
Result: 20.2

Ask: Now consider CC(C)NCC(C(=O)N1CCN(c2ncnc3c2C(C)CC3O)CC1)c1ccc(Cl)cc1 (stereo not given) + C=CC(=O)N1CCN(c2nc(OCC3CCCN3C)nc3c(F)c(-c4nc(N)cc(C)c4C(F)(F)F)c(Cl)cc23)C(C)C1 and answer again.
Result: 8.6

Ask: Record: CCC(CC)c1cc(NC2CCC(N)C2)n2nccc2n1 (stereo not given) + C=CC(=O)N1CCN(c2nc(OCC3CCCN3C)nc3c(F)c(-c4nc(N)cc(C)c4C(F)(F)F)c(Cl)cc23)C(C)C1
Result: 0.54

# context switch: different compound, same viability, T/C
Ask: Which viability, T/C is reported for this compound? CC(=O)OC12COC1CC(O)C1(C)C(=O)C(O)C3=C(C)C(OC(=O)C(O)C(NC(=O)OC(C)(C)C)c4ccccc4)CC(O)(C(OC(=O)c4ccccc4)C21)C3(C)C (stereo not given) + C=CC(=O)N1CCN(c2nc(OCC3CCCN3C)nc3c(F)c(-c4nc(N)cc(C)c4C(F)(F)F)c(Cl)cc23)C(C)C1
Result: 8.21

###

Would you kindly list viability, T/C for each of these compounds?
- Test system: 843782-103-R-J1-PDC complex spheroid viability
- protocol_notes: Anticancer human tumor 843782-103-R-J1-PDC cell line growth inhibition [RAS];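 further: viability read after seven days of compound exposure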
- condition_set: second compound 0.0316 µM; first compound 1 µM; hits give low values
Numbers only, in %.

Worked cases, viability, T/C given:
Ask: # lookup: viability, T/C of Cc1nc(N2CCC3(CC2)COC(C)C3N)c(CO)nc1Sc1ccnc(N)c1Cl (stereo not drawn) + C=CC(=O)N1CCN(c2nc(OCC3CCCN3C)nc3c(F)c(-c4nc(N)cc(C)c4C(F)(F)F)c(Cl)cc23)C(C)C1
Result: 36.2

Ask: Next record, please: CC(Nc1ccc2c(c1)OCCn1cc(N3C(=O)OCC3C(F)F)nc1-2)C(N)=O (stereo not drawn) + C=CC(=O)N1CCN(c2nc(OCC3CCCN3C)nc3c(F)c(-c4nc(N)cc(C)c4C(F)(F)F)c(Cl)cc23)C(C)C1
Result: 23.1

Next, consider the following compound.
Ask: Sample C=CC(=O)N1CCN(c2nc(OCC3CCCN3C)nc3c(F)c(-c4nc(N)cc(C)c4C(F)(F)F)c(Cl)cc23)C(C)C1 (stereo not drawn) + C#Cc1c(F)ccc2cc(O)cc(-c3ncc4c(N5CC6CCC(C5)N6)nc(OCC56CCCN5CC(F)C6)nc4c3F)c12 — what was its viability, T/C?
Result: 79.5
